As shown below, each of these compounds has a reported pIC50 value.
measured-target: CDK1/cyclinB (Homo sapiens, UniProt P06493)
Construct: purchased Invitrogen PV3292
Sequence (P06493 whole entry): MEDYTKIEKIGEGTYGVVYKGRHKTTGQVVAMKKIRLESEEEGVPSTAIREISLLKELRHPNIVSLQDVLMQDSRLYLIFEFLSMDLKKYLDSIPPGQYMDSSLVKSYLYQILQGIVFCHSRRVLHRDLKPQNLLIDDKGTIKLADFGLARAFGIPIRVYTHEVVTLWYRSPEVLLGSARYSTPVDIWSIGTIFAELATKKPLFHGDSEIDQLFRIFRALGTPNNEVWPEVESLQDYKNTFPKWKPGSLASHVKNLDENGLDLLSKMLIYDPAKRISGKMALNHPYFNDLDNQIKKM
Sequence (P14635 whole entry partner): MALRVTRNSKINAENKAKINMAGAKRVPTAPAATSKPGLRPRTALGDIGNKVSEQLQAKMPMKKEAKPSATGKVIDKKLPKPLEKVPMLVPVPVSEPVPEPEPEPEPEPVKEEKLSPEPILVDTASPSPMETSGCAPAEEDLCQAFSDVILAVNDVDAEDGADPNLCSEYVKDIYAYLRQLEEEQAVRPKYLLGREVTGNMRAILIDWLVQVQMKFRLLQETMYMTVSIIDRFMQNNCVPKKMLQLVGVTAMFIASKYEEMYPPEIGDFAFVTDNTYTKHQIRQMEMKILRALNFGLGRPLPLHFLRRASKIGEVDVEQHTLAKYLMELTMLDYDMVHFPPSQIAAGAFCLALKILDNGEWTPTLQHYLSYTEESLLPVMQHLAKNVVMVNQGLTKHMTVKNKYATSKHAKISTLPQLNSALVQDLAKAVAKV
method-description: Z'-LYTE kinase assay CDK1/cyclinB
Type: biochemical
condition-parameters: read-out: Kinase inhibition, IC50 CDK1B
Notebook: values listed as pIC50 are -log10 of the concentration (mol/L).

Answered cases to consult:
smiles-string	pIC50
Cn1cc(-c2ccnc(Nc3ccc(O)cc3)n2)c2ccccc21	6.13
CCn1cc(-c2ccnc(Nc3ccc(O)cc3C)n2)c2ccccc21	5.05

query: Given `CCCn1cc(-c2ccnc(Nc3ccc(S(N)(=O)=O)cc3)n2)c2ccncc21` , report its pIC50 on CDK1/cyclinB (Homo sapiens, UniProt P06493).
result: 9.40

query: Given `Cn1cc(-c2ccnc(Nc3cccc(O)c3)n2)c2ccccc21` , report its pIC50 on CDK1/cyclinB (Homo sapiens, UniProt P06493).
result: 5.60

query: Given `CCCn1cc(-c2ccnc(Nc3cccc(S(N)(=O)=O)c3)n2)c2nc(Cl)cc(C)c21` , report its pIC50 on CDK1/cyclinB (Homo sapiens, UniProt P06493).
result: 5.16

query: Given `CCn1cc(-c2ccnc(Nc3cccc(O)c3)n2)c2ccccc21` , report its pIC50 on CDK1/cyclinB (Homo sapiens, UniProt P06493).
result: 5.87

query: Given `CCn1cc(-c2ccnc(Nc3cccc(S(N)(=O)=O)c3)n2)c2cccnc21` , report its pIC50 on CDK1/cyclinB (Homo sapiens, UniProt P06493).
result: 6.20

query: Given `CCCn1cc(-c2ccnc(Nc3cccc(S(N)(=O)=O)c3)n2)c2cccnc21` , report its pIC50 on CDK1/cyclinB (Homo sapiens, UniProt P06493).
result: 6.35

query: Given `CCCn1cc(-c2ccnc(Nc3cccc(C(=O)N4CCN(C)CC4)c3)n2)c2cccnc21` , report its pIC50 on CDK1/cyclinB (Homo sapiens, UniProt P06493).
result: 5.80

query: Given `CCCn1cc(-c2ccnc(Nc3ccc(C)c(S(=O)(=O)N4CCOCC4)c3)n2)c2ccncc21` , report its pIC50 on CDK1/cyclinB (Homo sapiens, UniProt P06493).
result: 7.15

query: Given `CCCn1cc(-c2ccnc(Nc3cccc([N+](=O)[O-])c3)n2)c2cccnc21` , report its pIC50 on CDK1/cyclinB (Homo sapiens, UniProt P06493).
result: 5.12

query: Given `CCn1cc(-c2ccnc(Nc3cccc(C(N)=O)c3)n2)c2cccnc21` , report its pIC50 on CDK1/cyclinB (Homo sapiens, UniProt P06493).
result: 5.87

query: Given `Oc1cccc(Nc2nccc(-c3cn(Cc4ccccc4)c4ccccc34)n2)c1` , report its pIC50 on CDK1/cyclinB (Homo sapiens, UniProt P06493).
result: 5.32

query: Given `CCn1cc(-c2ccnc(Nc3ccc(O)cc3)n2)c2cccnc21` , report its pIC50 on CDK1/cyclinB (Homo sapiens, UniProt P06493).
result: 5.39

query: Given `CCCn1cc(-c2ccnc(Nc3cccc(S(N)(=O)=O)c3)n2)c2ccncc21` , report its pIC50 on CDK1/cyclinB (Homo sapiens, UniProt P06493).
result: 9.40
